tested on: OVCAR-8 ovarian; experiment: NCI-60 one-dose screen, 48 h; settings: 10 µM unless noted
Compounds without any hit were thinned out: in the full panel of roughly 83,000, 20% have a hit. Calls of active or inactive are those of the source. How the source made its calls: active means growth percent below 10; inactive means the rest.
Outcomes you can answer with include only these: 1 (yes) for active, 0 (no) for inactive

Past entries and their recorded results:
- Molecule: "C#CCOc1cccc(Nc2ncc3ncn(C4CCN(C(=O)CCl)C4)c3n2)c1 (stereo not drawn)"
  Class: "0 (no)"
- Molecule: "O=C(Nc1ccccc1C(=O)N/N=C(\\c1ccccc1)c1ccccn1)c1ccccc1"
  Class: "0 (no)"
- Molecule: "CC(=NCc1ccccc1)c1ccc(O)cc1O"
  Class: "0 (no)"
- Molecule: "COCCOc1cc2ncnc(N3CCN(S(=O)(=O)c4ccccc4Cl)CC3)c2cc1OCCOC"
  Class: "0 (no)"
- Molecule: "Nc1ccc(-c2ccc(N)c(Br)c2)cc1Br"
  Class: "0 (no)"

Any idea what this test logged for `O=C1C(N2CCOCC2)=C(I)C(=O)c2ncccc21` ? 0 (no)

Look up the recorded call for `Cc1ccc2nc3ccccc3c(NCc3ccc(Cl)cc3)c2c1` in this test. 0 (no)

Could you kindly confirm the outcome this assay logged for `N#CSc1c[nH]c2ccc(/C=C/C(=O)/C=C(/C=C/c3ccc4[nH]cc(SC#N)c4c3)OB(F)F)cc12` ? 1 (yes)

Short answer needed: outcome of this test for CCOC(=O)C1=C(C)NC(=O)NC1c1c(Cl)n(-c2ccccc2)c2ccccc12 (stereo not drawn) ? 0 (no)

Identify the outcome logged in this assay for the molecule shown: `CCOc1nc(-c2ccccc2)cc2c(O)c(C(=O)N/N=C/c3ccc(N(C)C)cc3)[nH]c(=O)c12` 0 (no)

So what was the verdict on `Clc1ccc(Nc2nc(Nc3ccc(Cl)cc3)nc(Nc3ccc(-c4cc(-c5cccc(Cl)c5)on4)cc3)n2)cc1` in this test? 0 (no)

Identify the outcome logged in this assay for the molecule shown: `Cc1[nH]c(C(=O)Nc2nc3ccc(NC(=O)CCN)cc3s2)c(Cl)c1Cl` 0 (no)

Outcome logged for `COc1cc(CO)cc2cc3ccccc3nc12` in this assay: 0 (no)
